The following compounds are shown together with reported IC50 values.
Target: human Nav1.8/b3 (Homo sapiens, UniProt Q9Y5Y9)
Construct: expressed in transfected cells; host or cells: CHO
Sequence (Q9Y5Y9 whole entry): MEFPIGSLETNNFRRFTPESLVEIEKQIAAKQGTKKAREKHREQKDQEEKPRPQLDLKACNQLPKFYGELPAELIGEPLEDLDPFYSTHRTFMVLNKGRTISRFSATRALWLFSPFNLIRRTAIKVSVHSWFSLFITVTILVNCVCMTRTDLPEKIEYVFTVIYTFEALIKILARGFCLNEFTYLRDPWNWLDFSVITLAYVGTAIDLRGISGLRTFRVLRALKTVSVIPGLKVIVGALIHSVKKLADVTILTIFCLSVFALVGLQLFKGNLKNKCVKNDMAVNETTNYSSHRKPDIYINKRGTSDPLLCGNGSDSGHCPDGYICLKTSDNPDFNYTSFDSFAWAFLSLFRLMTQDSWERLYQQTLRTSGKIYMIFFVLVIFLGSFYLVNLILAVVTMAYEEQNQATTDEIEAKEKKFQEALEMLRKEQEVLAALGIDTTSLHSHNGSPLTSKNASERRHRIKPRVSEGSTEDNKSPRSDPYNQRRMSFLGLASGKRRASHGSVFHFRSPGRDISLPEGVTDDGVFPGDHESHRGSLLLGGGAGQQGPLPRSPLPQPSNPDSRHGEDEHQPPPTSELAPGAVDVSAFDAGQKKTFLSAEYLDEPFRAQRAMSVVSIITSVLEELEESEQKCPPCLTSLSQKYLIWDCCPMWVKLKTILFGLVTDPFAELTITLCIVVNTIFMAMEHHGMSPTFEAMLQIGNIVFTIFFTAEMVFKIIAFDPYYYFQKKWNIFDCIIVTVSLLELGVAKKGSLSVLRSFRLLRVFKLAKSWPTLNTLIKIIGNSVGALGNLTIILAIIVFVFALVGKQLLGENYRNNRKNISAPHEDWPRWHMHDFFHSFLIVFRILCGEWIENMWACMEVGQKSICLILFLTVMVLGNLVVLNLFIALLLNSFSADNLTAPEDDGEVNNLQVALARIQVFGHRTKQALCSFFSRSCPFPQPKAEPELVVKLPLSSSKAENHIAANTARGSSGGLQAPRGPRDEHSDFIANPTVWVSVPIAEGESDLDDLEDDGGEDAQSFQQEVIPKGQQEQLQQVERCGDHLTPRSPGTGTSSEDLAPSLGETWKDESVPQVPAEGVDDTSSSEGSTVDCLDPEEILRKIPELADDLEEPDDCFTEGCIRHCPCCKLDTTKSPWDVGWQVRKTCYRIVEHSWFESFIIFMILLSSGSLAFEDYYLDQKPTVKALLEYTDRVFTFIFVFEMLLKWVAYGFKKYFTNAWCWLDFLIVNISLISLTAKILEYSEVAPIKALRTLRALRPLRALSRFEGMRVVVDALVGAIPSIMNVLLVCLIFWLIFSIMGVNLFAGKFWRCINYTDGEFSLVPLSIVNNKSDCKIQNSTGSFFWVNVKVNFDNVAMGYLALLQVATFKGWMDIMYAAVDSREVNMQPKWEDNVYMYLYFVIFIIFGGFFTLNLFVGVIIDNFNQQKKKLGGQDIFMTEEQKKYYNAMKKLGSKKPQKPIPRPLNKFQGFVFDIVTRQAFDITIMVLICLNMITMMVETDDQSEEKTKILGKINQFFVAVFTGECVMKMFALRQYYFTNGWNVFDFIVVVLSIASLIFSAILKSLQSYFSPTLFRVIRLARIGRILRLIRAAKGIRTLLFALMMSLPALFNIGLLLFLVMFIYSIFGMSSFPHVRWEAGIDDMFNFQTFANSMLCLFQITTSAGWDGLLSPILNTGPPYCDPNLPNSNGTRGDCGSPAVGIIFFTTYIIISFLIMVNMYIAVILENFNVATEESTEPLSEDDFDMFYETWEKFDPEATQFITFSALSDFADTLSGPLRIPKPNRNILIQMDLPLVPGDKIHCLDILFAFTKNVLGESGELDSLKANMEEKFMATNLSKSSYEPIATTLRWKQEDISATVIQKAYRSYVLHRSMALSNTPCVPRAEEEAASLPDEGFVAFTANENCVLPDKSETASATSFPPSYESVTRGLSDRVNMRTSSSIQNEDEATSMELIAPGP
Sequence (Q9NY72 23-215 partner): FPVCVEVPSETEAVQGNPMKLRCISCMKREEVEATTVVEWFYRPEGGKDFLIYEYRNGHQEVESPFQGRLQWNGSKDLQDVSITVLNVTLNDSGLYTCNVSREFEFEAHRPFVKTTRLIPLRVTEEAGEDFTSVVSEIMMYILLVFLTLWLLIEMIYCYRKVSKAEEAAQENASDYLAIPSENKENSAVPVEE
Assay: Compound Profiling Human NaV1.8/β3 Cell Line—SyncroPatch384PE Assay (automated patch clamp, stably transfected CHO cells)
Assay type: cell-based
Details: P2 (IC50, inactivated state block), P2 measurement, inactivated state block; Nav1.8/b3 CHO cells, inactivation step −35 mV 10 sec; first set of compounds

Guide cases for IC50, answers given:
COMPOUND: Cc1nc(F)ccc1Oc1cc(C(F)(F)F)c(Cl)cc1C(=O)Nc1ccc(C(N)=O)cc1 [Example 68A]
IC50: < 5 nM
//
COMPOUND: Cc1nc(F)ccc1Oc1cc(C(F)(F)F)c(Cl)c(C)c1C(=O)Nc1cccc([S@@](C)(=N)=O)c1 [Example 66A]
IC50: < 5 nM
//
COMPOUND: Cc1nc(F)ccc1Oc1cc(C(F)(F)F)c(Cl)cc1C(=O)Nc1ccc(F)c(S(C)(=O)=O)c1 [Example 54A]
IC50: < 5 nM

Recorded result, Cc1nc(F)ccc1Oc1cc(C(F)(F)F)c(Cl)cc1C(=O)Nc1ccc([S@@](C)(=N)=O)cc1 [Example 48A] , IC50: 50 to 100 nM

Recorded result, Cc1nc(F)ccc1Oc1cc(C(F)(F)F)c(Cl)c(C)c1C(=O)Nc1ccnc([S@@](C)(=N)=O)c1 [Example 60A] , IC50: < 5 nM
